system: T1, IL-18 receptor (IL-18Rα/IL-18Rβ) on cells (HEK-Blue IL18R reporter cells, NK-92, KG-1) (human, UniProt Q13478 19-541; O95256 20-599)
T1 sequence (looked up) 1: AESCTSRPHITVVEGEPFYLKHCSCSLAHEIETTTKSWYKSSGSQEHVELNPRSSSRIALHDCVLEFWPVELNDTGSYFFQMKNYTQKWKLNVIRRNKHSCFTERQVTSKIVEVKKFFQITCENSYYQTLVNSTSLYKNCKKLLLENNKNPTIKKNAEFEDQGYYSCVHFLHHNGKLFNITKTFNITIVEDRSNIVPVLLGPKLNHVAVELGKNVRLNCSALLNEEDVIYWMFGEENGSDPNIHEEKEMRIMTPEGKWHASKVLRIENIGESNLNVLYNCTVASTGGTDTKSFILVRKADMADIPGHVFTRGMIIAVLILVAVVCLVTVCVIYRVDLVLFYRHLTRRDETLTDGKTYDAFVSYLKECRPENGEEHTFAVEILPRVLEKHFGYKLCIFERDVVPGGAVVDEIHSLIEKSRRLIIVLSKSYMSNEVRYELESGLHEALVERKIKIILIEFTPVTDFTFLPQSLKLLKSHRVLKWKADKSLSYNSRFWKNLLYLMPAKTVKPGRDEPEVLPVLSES
T1 sequence (looked up) 2: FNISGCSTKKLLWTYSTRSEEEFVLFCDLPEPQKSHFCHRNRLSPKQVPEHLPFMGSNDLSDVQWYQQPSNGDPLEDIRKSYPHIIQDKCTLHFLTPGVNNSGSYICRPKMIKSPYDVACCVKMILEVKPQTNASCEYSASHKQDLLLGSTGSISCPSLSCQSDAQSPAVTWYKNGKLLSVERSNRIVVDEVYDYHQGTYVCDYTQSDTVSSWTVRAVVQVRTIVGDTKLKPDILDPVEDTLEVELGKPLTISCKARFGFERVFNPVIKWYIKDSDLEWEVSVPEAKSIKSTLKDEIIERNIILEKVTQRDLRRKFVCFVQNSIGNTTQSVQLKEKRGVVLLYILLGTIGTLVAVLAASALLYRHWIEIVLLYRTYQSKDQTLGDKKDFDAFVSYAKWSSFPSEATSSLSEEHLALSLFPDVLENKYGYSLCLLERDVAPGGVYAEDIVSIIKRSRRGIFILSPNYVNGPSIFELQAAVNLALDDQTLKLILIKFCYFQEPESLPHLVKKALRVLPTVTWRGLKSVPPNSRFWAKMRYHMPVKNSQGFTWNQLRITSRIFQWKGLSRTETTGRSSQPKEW
method_summary: cell-based or functional assay
Exercise: state measured EC50, IFNγ stimulation, NK92 cells for each of the binders provided.
I only need the number, in nM, no unit after it.

(Q) Can you share its EC50, IFNγ stimulation, NK92 cells? I mean this binder: IL-18 polypeptide of SEQ ID NO: 59 (E6K, C38A, K53A) (ligand) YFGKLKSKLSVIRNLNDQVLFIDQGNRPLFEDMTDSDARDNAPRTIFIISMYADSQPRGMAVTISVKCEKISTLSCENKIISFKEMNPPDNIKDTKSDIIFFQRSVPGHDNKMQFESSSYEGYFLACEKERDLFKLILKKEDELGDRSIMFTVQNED
(A) 0.015

(Q) IL-18 polypeptide of SEQ ID NO: 60 (E6K, C38Q, K53A) (ligand) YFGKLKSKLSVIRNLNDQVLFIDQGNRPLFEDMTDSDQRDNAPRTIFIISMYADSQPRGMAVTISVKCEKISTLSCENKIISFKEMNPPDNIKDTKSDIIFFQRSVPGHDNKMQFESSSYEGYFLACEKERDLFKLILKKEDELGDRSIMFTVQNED , same question.
(A) 0.006

meta.source: patent US12383631
